- Test system: HT-22
- experimentalDetails: Neuroprotective activity against glutamate-induced neuronal cell damage in mouse HT22 cells assessed as cell survival rate at 1 uM after 24 hrs by MTT assay (reference value: 12.49 to 43.44%)
- Type: functional
- experimentalParameters: HT-22, 24 h, read-out: Survival
propertyLabel: viability at 1 µM (%)
The reply should be a number in %, with the unit left off.

// recorded viability at 1 µM for "O=C(Oc1ccc(-c2cc(=S)ss2)cc1)c1cccnc1" : 43.3

// recorded viability at 1 µM for "Oc1ccc(-c2cc(=S)ss2)cc1" : 33.4

// recorded viability at 1 µM for "O=C(OCCCOc1ccc(-c2cc(=S)ss2)cc1)c1cccnc1" : 33.7

// recorded viability at 1 µM for "O=C(OCCCCOc1ccc(-c2cc(=S)ss2)cc1)c1cccnc1" : 66.9

// recorded viability at 1 µM for "O=C(N[C@@H](Cc1ccccc1)C(=O)OCCCCOc1ccc(-c2cc(=S)ss2)cc1)c1cccnc1" : 64.7

// recorded viability at 1 µM for "O=C(OCCCCCOc1ccc(-c2cc(=S)ss2)cc1)c1cccnc1" : 52.9

// recorded viability at 1 µM for "O=C(O)c1cccnc1" : 56.2

// recorded viability at 1 µM for "O=C(OCCCCCCOc1ccc(-c2cc(=S)ss2)cc1)c1cccnc1" : 82.6

// recorded viability at 1 µM for "O=C(OCCCCCCCCOc1ccc(-c2cc(=S)ss2)cc1)c1cccnc1" : 82.5

// recorded viability at 1 µM for "C[C@H](NC(=O)c1cccnc1)C(=O)OCCCCOc1ccc(-c2cc(=S)ss2)cc1" : 68.7

// recorded viability at 1 µM for "O=C(OCCCCCCCCCOc1ccc(-c2cc(=S)ss2)cc1)c1cccnc1" : 108

// recorded viability at 1 µM for "CC(C)[C@H](NC(=O)c1cccnc1)C(=O)OCCCCOc1ccc(-c2cc(=S)ss2)cc1" : 73.3

// recorded viability at 1 µM for "O=C(OCCOc1ccc(-c2cc(=S)ss2)cc1)c1cccnc1" : 57.9

// recorded viability at 1 µM for "O=C(CNC(=O)c1cccnc1)OCCCCOc1ccc(-c2cc(=S)ss2)cc1" : 69.2

---

- System: HT-22
- experimentalDetails: Neuroprotective activity against glutamate-induced neuronal cell damage in mouse HT22 cells assessed as cell survival rate at 10 uM after 24 hrs by MTT assay (reference value: 12.49 to 43.44%)
- Format: functional
- experimentalParameters: HT-22, 24 h, read-out: Survival
Assignment: determine reported viability at 10 µM for the given compounds.
The reply should be a number in %, with the unit left off.

Form field viability at 10 µM for item "O=C(OCCCCCCCCCOc1ccc(-c2cc(=S)ss2)cc1)c1cccnc1" on HT-22: 101

Form field viability at 10 µM for item "C[C@H](NC(=O)c1cccnc1)C(=O)OCCCCOc1ccc(-c2cc(=S)ss2)cc1" on HT-22: 75.5

Form field viability at 10 µM for item "O=C(OCCCCOc1ccc(-c2cc(=S)ss2)cc1)c1cccnc1" on HT-22: 94.8

Form field viability at 10 µM for item "O=C(Oc1ccc(-c2cc(=S)ss2)cc1)c1cccnc1" on HT-22: 64.2

Form field viability at 10 µM for item "O=C(OCCCCCCCCOc1ccc(-c2cc(=S)ss2)cc1)c1cccnc1" on HT-22: 78

Form field viability at 10 µM for item "O=C(OCCCCCCOc1ccc(-c2cc(=S)ss2)cc1)c1cccnc1" on HT-22: 83.2

Form field viability at 10 µM for item "O=C(N[C@@H](Cc1ccccc1)C(=O)OCCCCOc1ccc(-c2cc(=S)ss2)cc1)c1cccnc1" on HT-22: 87.7

Form field viability at 10 µM for item "Oc1ccc(-c2cc(=S)ss2)cc1" on HT-22: 52.2

Form field viability at 10 µM for item "O=C(OCCOc1ccc(-c2cc(=S)ss2)cc1)c1cccnc1" on HT-22: 80.8

Form field viability at 10 µM for item O=C(O)c1cccnc1 [NIACIN] on HT-22: 58.9

Form field viability at 10 µM for item "O=C(OCCCCCOc1ccc(-c2cc(=S)ss2)cc1)c1cccnc1" on HT-22: 92.5

Form field viability at 10 µM for item "O=C(CNC(=O)c1cccnc1)OCCCCOc1ccc(-c2cc(=S)ss2)cc1" on HT-22: 87.4

Form field viability at 10 µM for item "CC(C)[C@H](NC(=O)c1cccnc1)C(=O)OCCCCOc1ccc(-c2cc(=S)ss2)cc1" on HT-22: 72.4

Form field viability at 10 µM for item "O=C(OCCCOc1ccc(-c2cc(=S)ss2)cc1)c1cccnc1" on HT-22: 87.2

---

- experimentalDetails: Cytotoxicity against mouse HT22 cells assessed as cell survival rate at 100 uM after 24 hrs by MTT assay
- Type: toxicity, HT-22
- experimentalParameters: read-out: Survival
propertyLabel: viability at 24 h, 100 µM (%)
The reply should be a number in %, with the unit left off.

// recorded viability at 24 h, 100 µM for "CC(C)[C@H](NC(=O)c1cccnc1)C(=O)OCCCCOc1ccc(-c2cc(=S)ss2)cc1" : 68

// recorded viability at 24 h, 100 µM for "O=C(OCCCCCCCCOc1ccc(-c2cc(=S)ss2)cc1)c1cccnc1" : 100

// recorded viability at 24 h, 100 µM for "O=C(Oc1ccc(-c2cc(=S)ss2)cc1)c1cccnc1" : 100

// recorded viability at 24 h, 100 µM for "O=C(OCCCCCCCCCOc1ccc(-c2cc(=S)ss2)cc1)c1cccnc1" : 70.4

// recorded viability at 24 h, 100 µM for "O=C(OCCOc1ccc(-c2cc(=S)ss2)cc1)c1cccnc1" : 100

// recorded viability at 24 h, 100 µM for "O=C(OCCCOc1ccc(-c2cc(=S)ss2)cc1)c1cccnc1" : 100

// recorded viability at 24 h, 100 µM for "O=C(OCCCCCOc1ccc(-c2cc(=S)ss2)cc1)c1cccnc1" : 100

// recorded viability at 24 h, 100 µM for "O=C(OCCCCCCOc1ccc(-c2cc(=S)ss2)cc1)c1cccnc1" : 100

// recorded viability at 24 h, 100 µM for "C[C@H](NC(=O)c1cccnc1)C(=O)OCCCCOc1ccc(-c2cc(=S)ss2)cc1" : 100

// recorded viability at 24 h, 100 µM for "O=C(CNC(=O)c1cccnc1)OCCCCOc1ccc(-c2cc(=S)ss2)cc1" : 100

// recorded viability at 24 h, 100 µM for "O=C(OCCCCOc1ccc(-c2cc(=S)ss2)cc1)c1cccnc1" : 52.9

// recorded viability at 24 h, 100 µM for "O=C(N[C@@H](Cc1ccccc1)C(=O)OCCCCOc1ccc(-c2cc(=S)ss2)cc1)c1cccnc1" : 100
